- Tested on: SK-OV-3 ovarian
- ASSAY_NOTES: NCI tumour cell line growth inhibition, 48 h
ASSAY_READOUT: TGI

// recorded TGI for O=C1C(Cl)C(c2cccc([N+](=O)[O-])c2)N1n1cnc2ccccc2c1=O (configuration not stated) : > 100 µM

// COc1ccc(N2C(=O)c3cc([N+](=O)[O-])cnc3S2(=O)=O)cc1 : TGI value = > 100 µM

For reference, reported TGI for N#CC1=C(N)Oc2c(sc3c(Br)cccc23)C1c1ccc([N+](=O)[O-])cc1 (configuration not stated) stands at 15.1 µM

// TGI value for C=CCOC(=O)Cn1cnc2c(N)ncnc21 : > 100 µM

Kindly note the recorded TGI for Cc1ccc(S(=O)(=O)NNC(=O)Nc2cccc(C(F)(F)F)c2)cc1 , which is > 100 µM

Briefly, TGI measured for CCOc1ccc(/C=C2\N=C(c3ccccc3)OC2=O)cc1 : > 100 µM

In plain terms, COc1ccc2c(c1)[C@@H](NC(C)=O)CCc1cc(OC)c(OC)c(OC)c1-2 has a documented TGI of 4.1 µM

Noted for Cc1ccc2c(c1C)C(=O)C1(C2)Cc2ccc3c(c2C1=O)CCC3 (configuration not stated) : its TGI reads > 100 µM

Record summary for CN1CCN(Cn2nc(COc3ccccc3Cl)n(/N=C/c3ccc(-c4ccc(Cl)cc4Cl)o3)c2=S)CC1 : reported TGI = > 100 µM

Entry O=C1C2C3C4C1C1C2[C@H](OCc2ccccc2)C3C1[C@H]4OCc1ccccc1 (some centres not stated) ; TGI = > 100 µM

So for O=C(Cc1ccccc1)NN1C(=O)C(Cl)C1c1ccc(Cl)cc1 (configuration not stated) , the logged TGI turned out to be > 100 µM

For reference, reported TGI for CCOC(=O)c1noc2c1CCc1c-2cn(Cc2ccc(OC)cc2)c1-c1cc(OC)c(OC)c(OC)c1 stands at > 100 µM

For O=c1c2ccccc2nc(-c2cccc([N+](=O)[O-])c2)n1O the molecule record lists TGI as > 100 µM

// Clc1ccc(OCC2NC3CCC2CC3)cn1 (configuration not stated) : TGI value = > 100 µM

// TGI lookup, molecule = Brc1ccc(C2=NCSC(c3ccc(Br)cc3)=N2)cc1 , result: > 100 µM

The molecule O=C1CSC(c2c[nH]c3ccccc23)N1c1cccc(Cl)c1 (configuration not stated) showed TGI equal to > 100 µM

Reported TGI ( Nc1ccccc1N ) = > 100 µM

The molecule identified as CS(=O)(=O)OCCN(CCOS(C)(=O)=O)c1ccc(C=Nc2ccc(-c3csc(COc4ccccc4)n3)cc2)cc1 registered its TGI at 12.2 µM

TGI reported for this molecule CCC(C)N1CN(c2ccccc2)C2(CCN(CC3COc4ccccc4O3)CC2)C1=O (configuration not stated) : > 100 µM

// O=C1C=CC2(C=C1)O[C@H](COCc1ccccc1)[C@@H](COCc1ccccc1)O2 : TGI value = 29 µM

Value of TGI reported for the molecule N=c1sc2ccccc2n1CCS (tested in a mixture with another compound) is 53.6 µM

The value of TGI measured for the molecule O=P1(NCCCl)OCCCN1CCCl (configuration not stated) turned out to be 424 µM

Form: molecule = C/C(=N/NC(=O)c1ccccc1S(N)(=O)=O)C(CN1CCCCC1)C(C1=C(O)C2C=CC=CC2OC1=O)c1ccccc1 (configuration not stated) ; TGI = > 100 µM

GET /value?item= C=CC(=O)NCCC(=O)OCn1cc(F)c(=O)[nH]c1=O &field=TGI returns > 100 µM

Recorded result, CC(C)(C)CC(C)(C)c1ccc(OCCO)cc1 , TGI: 28.6 µg/mL

Cn1cc(C2NC(=O)c3ccccc3N2)c2ccccc21 (configuration not stated) has a reported TGI of 40.3 µM

get_value(item= O=C1c2ccccc2-c2nnc3c(c21)Cc1ccccc1C3 , readout=TGI) returns > 10 µM

Briefly, TGI measured for CC(=O)OC(C)(C)C1CC[C@]2(C)/C=C/C(C)C[C@@H](O)/C=C(\C)CC(O)C12 (some centres not stated) : > 100 µM

Entry under test: Fc1ccc(Nc2nc(Cl)c3[nH]cnc3n2)cc1Cl . Its TGI was > 100 µM

For CN1C(=O)C(c2c[nH]c3ccccc23)=C(c2c[nH]c3ccccc23)C1=O the molecule record lists TGI as > 25 µM

// recorded TGI for CCCN(CCC)C(=S)Sc1nc(C)nc(N2CCN(c3nc(C)nc(SC(=S)N(CCC)CCC)c3[N+](=O)[O-])CC2)c1[N+](=O)[O-] : > 100 µM

Value of TGI reported for the molecule C=CC1(C)CCC2C(=CCC3C2(C)CC(O)C(O)C3(C)COC2OC(CO)C(O)C(O)C2O)C1 (configuration not stated) is > 100 µM

Entry CC(CN1NC12CCCC2)N1NC12CCCC2 (configuration not stated) — recorded TGI = > 100 µM

Reported TGI of CC(C)(CN1CCCCC1)C(=O)/C=C/c1ccccc1 : 57.3 µM

// sample NS(=O)(=O)c1ccc(NC(=S)NC(=O)Nc2ccc(Cl)c(Cl)c2)cc1 , its TGI was 38.9 µM

Lab note: measured TGI of Cn1ncnc1[C@@H]1c2n[nH]c(=O)c3cc(F)cc(c23)N[C@H]1c1ccc(F)cc1 was > 100 µM

molecule CCCCn1c(=O)[nH]c(N)c([C@@H]2c3c([nH]c(=O)n(CCCC)c3=O)Oc3ccc4ccccc4c32)c1=O , TGI observed: 11.9 µM

molecule C=C(CO)C(=O)OC1CC(=C)C2CC(O)C(C)C2C2OC(=O)C(=C)C12 (configuration not stated) , TGI observed: > 100 µM

According to the records, this molecule COC(=O)N[C@H]1CCc2cc(OC)c(OC)c(OC)c2-c2ccc(SC)c(=O)cc21 displays TGI of > 100 µM

response.value for CN(Cc1cnc2nc(N)nc(N)c2n1)c1ccc(C(=O)NCCCS(=O)(=O)O)cc1 (field: TGI) = > 100 µM

get_value(item= N#Cc1cc2c(cc1C#N)SCCSCCCSCCS2 , readout=TGI) returns 45.4 µM

For C[C@@H]1C(=O)CC2C(C)(C)CCC[C@]2(C)[C@@]12CC[C@]1(C=COC1)O2 (some centres not stated) the molecule record lists TGI as 91.7 µM

Source listed as PubChem BioAssay (NCI).
